Source: ChEMBL document CHEMBL5113527

# Species on record: Homo sapiens
# assay remarks: Selectivity index, ratio of IC50 for recombinant HDAC1(unknown origin) to IC50 for full length recombinant human HDAC6
With a cut-off of 5, any Ratio IC50 strictly below it is called class 1; any Ratio IC50 meeting it or above is called class 0.

Recorded results for 5 molecules are shown here.
[[record]]
smiles_string = "CCNNC(=O)c1ccc(Cn2c3ccccc3c3ccncc32)cc1"
assigned_class = "class 0"

[[record]]
smiles_string = "CCCCN(Cc1ccc(C(=O)NNCC)cc1)C(=O)Nc1ccccc1"
assigned_class = "class 1"

[[record]]
smiles_string = "CCNNC(=O)c1ccc(CN2c3ccccc3C=Cc3ccccc32)cc1"
assigned_class = "class 0"

[[record]]
smiles_string = "CCNNC(=O)c1ccc(Cn2c3ccccc3c3ccccc32)cc1"
assigned_class = "class 0"

[[record]]
smiles_string = "CCNNC(=O)c1ccc(Cn2c3ccccc3c3cnccc32)cc1"
assigned_class = "class 0"


Exercise: Consider the molecule `CCNNC(=O)c1ccc(CN2c3ccccc3C=Cc3ccc(F)cc32)cc1` . Is its Ratio IC50 strictly less than 5?
Key: class 0

Exercise: Is Ratio IC50 strictly under 5 for the entry `CCNNC(=O)c1ccc(CN2c3ccccc3Sc3ccccc32)cc1` ?
Key: class 0

Exercise: API: query returns whether the molecule falls strictly under 5 in Ratio IC50. Query: `CCNNC(=O)c1ccc(CN2c3ccccc3C=Cc3ccc(C)cc32)cc1`
Key: class 0

Exercise: Problem: For the molecule `CCNNC(=O)c1ccc(CN2c3ccccc3C=Cc3nc(C)nc(C)c32)cc1` , is Ratio IC50 under 5?
Key: class 0

Exercise: Consider `CCNNC(=O)c1ccc(CN2c3ccccc3C=Cc3ccc(C(F)(F)F)cc32)cc1` . Does its Ratio IC50 lie strictly below 5?
Key: class 0

Exercise: Identify whether the molecule `CCNNC(=O)c1ccc(CN2c3ccccc3Sc3cccnc32)cc1` records Ratio IC50 below 5.
Key: class 0

Exercise: Is it true that Ratio IC50 reported for `CCNNC(=O)c1ccc(Cn2ccc3cc(C(=O)c4ccc(OC)cc4)ccc32)cc1` is less than 5?
Key: class 1

Exercise: Here's an entry: `CCCNNC(=O)c1ccc(CNC(=O)c2ccccc2)cc1` . Is its Ratio IC50 below 5?
Key: class 1

Exercise: Does the reported Ratio IC50 of `CCNNC(=O)c1ccc(CN2c3ccccc3Cc3ccccc32)cc1` stay below 5?
Key: class 0

Exercise: is_below(Ratio IC50, 5) for `CCNNC(=O)c1ccc(Cn2c(=O)n(CCc3ccccc3)c(=O)c3ccccc32)cc1` ?
Key: class 0

Exercise: Quick check: does `CCNNC(=O)c1ccc(Cn2c3c(c4ccccc42)CCCC3)cc1` have Ratio IC50 under 5?
Key: class 0

Exercise: Take the molecule `CCNNC(=O)c1ccc(CN2c3ccccc3CCc3ccccc32)cc1` and say whether its Ratio IC50 is less than 5.
Key: class 0

Exercise: is_below(Ratio IC50, 5) for `CCNNC(=O)c1ccc(CN2c3ccccc3Oc3ccccc32)cc1` ?
Key: class 0

Exercise: In plain terms, does `CCCCN(Cc1ccc(C(=O)NNCC)cc1)C(=O)c1ccccc1` come in under 5 for Ratio IC50?
Key: class 0

Exercise: Dear reviewer, please state whether `CNNC(=O)c1ccc(CNC(=O)c2ccccc2)cc1` has Ratio IC50 strictly beneath 5.
Key: class 0

---

Reported pIC50 values for a set of molecules
# target under test: Histone deacetylase 2 (Homo sapiens)
# assay remarks: Inhibition of HDAC2 (unknown origin)
Scale note: pIC50 = -log10(concentration in M).

[[record]]
smiles_string = "O=C(NO)c1ccc(CC(=O)N(CCO)c2ccccc2)cc1"
target_under_test = "Histone deacetylase 2 (Homo sapiens)"
assay_result = 5.66


Alright, here's another molecule for you.
For this molecule ( `O=C(NO)c1ccc(CN2CCCc3ccccc32)cc1` ), measured pIC50 is 4.48

---

# assay remarks: Plasma concentration in CD-1 mouse at 20 mg/kg measured after 0.5 hrs by LC-MS/MS analysis
# Assay type: ADME, organism-based
metric: concentration at 0.5 h (ng/mL)
Field format: number, assumed ng/mL, no unit text.

Lab note: measured concentration at 0.5 h of `CCNNC(=O)c1ccc(CN2c3ccccc3C=Cc3ccncc32)cc1` was 7740

---

# target under test: Histone deacetylase 5 (Homo sapiens)
# Sequence (Q9UQL6 whole entry): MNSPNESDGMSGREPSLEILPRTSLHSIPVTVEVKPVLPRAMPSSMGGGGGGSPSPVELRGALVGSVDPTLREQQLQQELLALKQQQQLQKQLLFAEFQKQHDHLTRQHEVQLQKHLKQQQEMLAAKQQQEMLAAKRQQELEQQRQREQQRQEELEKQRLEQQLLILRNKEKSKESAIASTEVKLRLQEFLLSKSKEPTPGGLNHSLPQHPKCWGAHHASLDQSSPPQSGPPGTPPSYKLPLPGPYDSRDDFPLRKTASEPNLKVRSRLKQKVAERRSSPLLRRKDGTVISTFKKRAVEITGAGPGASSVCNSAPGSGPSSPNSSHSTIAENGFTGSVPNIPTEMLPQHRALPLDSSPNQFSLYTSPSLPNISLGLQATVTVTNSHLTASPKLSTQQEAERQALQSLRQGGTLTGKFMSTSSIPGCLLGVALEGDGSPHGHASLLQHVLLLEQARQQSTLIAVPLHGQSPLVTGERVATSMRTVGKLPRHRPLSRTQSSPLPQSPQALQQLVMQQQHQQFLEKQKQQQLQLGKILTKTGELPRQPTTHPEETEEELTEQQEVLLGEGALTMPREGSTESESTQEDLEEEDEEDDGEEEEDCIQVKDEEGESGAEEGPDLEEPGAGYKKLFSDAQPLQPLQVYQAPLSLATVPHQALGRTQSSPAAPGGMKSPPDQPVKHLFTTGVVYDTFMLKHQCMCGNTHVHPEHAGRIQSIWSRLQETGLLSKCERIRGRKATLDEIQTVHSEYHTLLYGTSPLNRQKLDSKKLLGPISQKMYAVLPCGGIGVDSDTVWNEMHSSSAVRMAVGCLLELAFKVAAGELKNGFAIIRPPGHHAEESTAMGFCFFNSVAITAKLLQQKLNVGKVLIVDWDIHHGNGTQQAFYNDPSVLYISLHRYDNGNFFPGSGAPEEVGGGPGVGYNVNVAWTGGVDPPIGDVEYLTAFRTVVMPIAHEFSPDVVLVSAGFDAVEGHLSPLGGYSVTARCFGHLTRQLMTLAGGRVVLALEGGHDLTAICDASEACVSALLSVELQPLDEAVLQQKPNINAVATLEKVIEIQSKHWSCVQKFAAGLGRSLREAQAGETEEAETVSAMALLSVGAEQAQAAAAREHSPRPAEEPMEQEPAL
# assay remarks: Inhibition of recombinant HDAC5 (unknown origin) using Boc-Lys (trifluoroacetyl) AMC as substrate preincubated for 1 hr followed by substrate addition and measured after 2 hrs by fluorescence based microplate reader analysis
metric: IC50

According to the records, this compound `CCNNC(=O)c1ccc(CN2c3ccccc3C=Cc3ccncc32)cc1` displays IC50 of > 5 µM

---

# target under test: Histone deacetylase 9 (Homo sapiens)
# Sequence (Q9UKV0 whole entry): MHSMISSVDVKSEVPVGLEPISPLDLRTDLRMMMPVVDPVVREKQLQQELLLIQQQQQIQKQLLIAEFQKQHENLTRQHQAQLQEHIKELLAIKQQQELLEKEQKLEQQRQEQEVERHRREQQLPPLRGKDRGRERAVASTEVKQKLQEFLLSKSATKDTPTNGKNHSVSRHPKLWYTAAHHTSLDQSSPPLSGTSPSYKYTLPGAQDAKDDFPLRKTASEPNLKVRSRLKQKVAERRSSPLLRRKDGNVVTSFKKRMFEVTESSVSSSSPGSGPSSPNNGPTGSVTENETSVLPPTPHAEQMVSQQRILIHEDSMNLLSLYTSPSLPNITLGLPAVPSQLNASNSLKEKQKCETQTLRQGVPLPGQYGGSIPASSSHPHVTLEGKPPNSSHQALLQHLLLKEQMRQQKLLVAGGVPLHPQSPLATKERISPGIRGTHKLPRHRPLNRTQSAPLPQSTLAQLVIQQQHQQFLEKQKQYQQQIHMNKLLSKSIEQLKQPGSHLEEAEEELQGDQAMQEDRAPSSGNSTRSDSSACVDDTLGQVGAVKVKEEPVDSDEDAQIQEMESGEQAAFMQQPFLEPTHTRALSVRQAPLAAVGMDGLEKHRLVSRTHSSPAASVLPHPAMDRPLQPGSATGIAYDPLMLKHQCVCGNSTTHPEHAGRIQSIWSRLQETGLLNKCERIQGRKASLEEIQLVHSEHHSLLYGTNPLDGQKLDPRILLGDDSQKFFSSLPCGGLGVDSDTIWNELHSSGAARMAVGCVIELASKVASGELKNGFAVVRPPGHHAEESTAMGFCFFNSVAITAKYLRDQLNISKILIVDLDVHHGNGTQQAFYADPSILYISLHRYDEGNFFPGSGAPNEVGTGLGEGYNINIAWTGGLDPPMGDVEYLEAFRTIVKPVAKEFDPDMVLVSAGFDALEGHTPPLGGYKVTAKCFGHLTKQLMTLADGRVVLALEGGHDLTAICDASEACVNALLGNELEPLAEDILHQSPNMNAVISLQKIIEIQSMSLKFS
# assay remarks: Inhibition of recombinant HDAC9 (unknown origin) using Boc-Lys (trifluoroacetyl) AMC as substrate preincubated for 1 hr followed by substrate addition and measured after 2 hrs by fluorescence based microplate reader analysis
metric: IC50

IC50 on Histone deacetylase 9 (Homo sapiens) for `CCNNC(=O)c1ccc(CN2c3ccccc3C=Cc3ccncc32)cc1` is > 5 µM

---

# assay remarks: Brain concentration in CD-1 mouse at 20 mg/kg measured after 1 hrs by LC-MS/MS analysis
# Type: ADME, organism-based
# condition summary: read-out: Ct
metric: concentration at 1 h (ng/mL)
Numbers only here, please. The scale is ng/mL.

For this compound ( `CCNNC(=O)c1ccc(CN2c3ccccc3C=Cc3ccncc32)cc1` ), measured concentration at 1 h is 7400

---

# target under test: Histone deacetylase 2 (Homo sapiens, UniProt Q92769)
# Sequence (Q92769 whole entry): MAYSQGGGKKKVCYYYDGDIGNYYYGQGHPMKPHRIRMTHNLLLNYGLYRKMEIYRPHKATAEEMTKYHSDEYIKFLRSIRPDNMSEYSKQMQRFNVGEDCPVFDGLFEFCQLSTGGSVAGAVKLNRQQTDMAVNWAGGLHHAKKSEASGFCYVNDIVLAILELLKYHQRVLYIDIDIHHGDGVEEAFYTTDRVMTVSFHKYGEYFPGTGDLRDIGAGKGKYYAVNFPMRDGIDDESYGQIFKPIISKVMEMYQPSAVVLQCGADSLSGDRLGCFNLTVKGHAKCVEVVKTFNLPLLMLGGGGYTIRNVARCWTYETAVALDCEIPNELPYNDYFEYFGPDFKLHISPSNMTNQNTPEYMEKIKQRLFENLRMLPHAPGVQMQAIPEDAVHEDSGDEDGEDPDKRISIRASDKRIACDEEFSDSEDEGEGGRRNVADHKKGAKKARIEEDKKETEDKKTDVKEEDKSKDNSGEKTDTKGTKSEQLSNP
# assay remarks: Inhibition of recombinant HDAC2 (unknown origin) using Boc-Lys(acetyl)-AMC as substrate preincubated for 1 hr followed by substrate addition and measured after 2 hrs by fluorescence based microplate reader analysis
pIC50 listing for selected compounds.
In textbook form, pIC50 equals minus log to base ten of the concentration in mol/L.

The cases that follow already have their pIC50 on record.
[[record]]
smiles_string = "CCNNC(=O)c1ccc(CN2c3ccccc3C=Cc3ccc(F)cc32)cc1"
assay_result = 5.39

[[record]]
smiles_string = "CCNNC(=O)c1ccc(CNc2cccc3cccnc23)cc1"
assay_result = 7.09

[[record]]
smiles_string = "CCNNC(=O)c1ccc(NC(=O)Nc2cccc3cccnc23)cc1"
assay_result = 6.63

[[record]]
smiles_string = "CCNNC(=O)c1csc(-c2cccnc2)n1"
assay_result = 6.50

[[record]]
smiles_string = "CCNNC(=O)c1ccc(Cn2nnnc2-c2cccs2)cc1"
assay_result = 7.39

[[record]]
smiles_string = "CCCCN(Cc1ccc(C(=O)NNCC)cc1)C(=O)c1ccccc1"
assay_result = 6.73

[[record]]
smiles_string = "CCNNC(=O)c1ccc(Cn2c(=O)n(CCc3ccccc3)c(=O)c3ccccc32)cc1"
assay_result = 5.92

[[record]]
smiles_string = "CCNNC(=O)c1ccc(Cn2c3ccccc3c3cccnc32)cc1"
assay_result = 5.63


Please turn your attention to the following entry.
The compound identified as `CCNNC(=O)c1ccc(Cn2c3ccccc3c3cnccc32)cc1` registered its pIC50 at 5.49

---

# target under test: UniProtKB Q13547
# Sequence (Q13547 whole entry): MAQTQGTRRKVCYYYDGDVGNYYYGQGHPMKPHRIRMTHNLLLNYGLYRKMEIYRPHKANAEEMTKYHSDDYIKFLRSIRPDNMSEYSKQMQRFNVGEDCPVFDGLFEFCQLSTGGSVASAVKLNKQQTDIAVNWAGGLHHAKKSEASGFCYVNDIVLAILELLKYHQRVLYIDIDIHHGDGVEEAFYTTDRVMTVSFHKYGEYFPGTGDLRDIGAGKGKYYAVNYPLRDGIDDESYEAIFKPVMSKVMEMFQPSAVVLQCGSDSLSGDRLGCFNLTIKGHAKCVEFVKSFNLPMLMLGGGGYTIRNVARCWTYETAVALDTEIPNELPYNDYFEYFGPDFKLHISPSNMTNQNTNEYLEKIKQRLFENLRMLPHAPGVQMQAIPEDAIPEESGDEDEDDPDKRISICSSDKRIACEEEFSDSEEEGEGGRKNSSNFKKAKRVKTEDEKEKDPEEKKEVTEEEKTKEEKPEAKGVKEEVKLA
# assay remarks: Inhibition of recombinant HDAC1 (unknown origin) using Boc-Lys(acetyl)-AMC as substrate preincubated for 1 hr followed by substrate addition and measured after 2 hrs by fluorescence based microplate reader analysis
Please respond with t when measured IC50 is strictly beneath 2000 nM, and with f in all other cases.

Reference set, count: 4
[[record]]
smiles_string = "CCNNC(=O)c1ccc(CN2c3ccccc3C=Cc3ccc(C)cc32)cc1"
assigned_class = "f"

[[record]]
smiles_string = "CCNNC(=O)c1ccc(CN2c3ccccc3Sc3ccccc32)cc1"
assigned_class = "f"

[[record]]
smiles_string = "CCNNC(=O)c1ccc(CNc2cccc3cccnc23)cc1"
assigned_class = "t"

[[record]]
smiles_string = "CCNNC(=O)c1coc(-c2ccc(Br)cc2)c1"
assigned_class = "f"


Exercise: Hello, I'm reviewing records and need to know if IC50 of `CCNNC(=O)c1ccc(Cn2nnnc2-c2cccs2)cc1` is below 2000 nM. Could you check?
Key: t

Exercise: For this compound, is IC50 lower than 2000 nM? `CCNNC(=O)c1ccc(Cn2c3ccccc3c3cnccc32)cc1`
Key: f

Exercise: Criterion: IC50 strictly below 2000 nM. Is it met by `CCNNC(=O)c1ccc(CNC(=O)c2ccccc2)cc1` ?
Key: t

Exercise: Lab note: confirm whether the reported IC50 for this compound is below 2000 nM, equality not counting. compound: `CCCCN(Cc1ccc(C(=O)NNCC)cc1)C(=O)c1ccccc1`
Key: t

Exercise: For this compound, is IC50 lower than 2000 nM? `CCNNC(=O)c1ccc(CN2c3ccccc3C=Cc3ccncc32)cc1`
Key: t

Exercise: Record `CCCNNC(=O)c1ccc(CNC(=O)c2ccccc2)cc1` : is its IC50 strictly below 2000 nM?
Key: t

Exercise: Say whether its IC50 is strictly beneath 2000 nM. Entry: `CCNNC(=O)c1ccc(CN2c3ccccc3CC(=O)c3ccccc32)cc1`
Key: f

Exercise: Here's an entry: `CCNNC(=O)c1ccc(Cn2c(=O)n(CCc3ccccc3)c(=O)c3ccccc32)cc1` . Is its IC50 below 2000 nM?
Key: t

Exercise: Lab note: confirm whether the reported IC50 for this compound is below 2000 nM, equality not counting. compound: `CCNNC(=O)c1ccc(CNC(=O)Nc2cccc3cccnc23)cc1`
Key: t

Exercise: Please let me know if `CCCCN(Cc1ccc(C(=O)NNCC)cc1)C(=O)Nc1ccccc1` shows IC50 below 2000 nM.
Key: t

Exercise: API: query returns whether the compound falls strictly under 2000 nM in IC50. Query: `O=C(CS)NCCCCNc1c(Cl)cc(Cl)c2cccnc12`
Key: f

Exercise: Is the reported IC50 for `CCNNC(=O)c1ccc(CN2c3ccccc3C=Cc3ccc(F)cc32)cc1` strictly below 2000 nM?
Key: f

Exercise: I'd appreciate it if you could check whether `CCNNC(=O)c1ccc(Cn2c3c(c4ccccc42)CCCC3)cc1` has IC50 smaller than 2000 nM.
Key: f

Exercise: Does the reported IC50 of the following compound sit strictly below 2000 nM? `CCNNC(=O)c1ccc(Cn2ccc3cc(C(=O)c4ccc(OC)cc4)ccc32)cc1`
Key: t
